Every entry's value here was drawn from ChEMBL document CHEMBL1144956.

Kindly state pIC50 for each of the entries shown.
Test system: A2780
Assay: In vitro cytotoxic activity against human tumor cell line A2780CisR after incubation for 96 hours
Format: functional, cell-based
Details: A2780, 96 h
Answers are plain numbers, as −log10 of the molar value.

Consider the worked cases shown below.
CHEMICAL_STRING | MEASURE_NAME | ENDPOINT_VALUE
O=C(O[C@@H]1C=C(Br)C(=O)[C@H]1O)c1c(O)ccc2ccccc12 | pIC50 | 4.76
O=C(O[C@@H]1C(=O)C=C[C@H]1O)c1c(O)ccc2ccccc12 | pIC50 | 5.03
COc1cc(C)c2ccc(O)c(C(=O)O[C@@H]3C(=O)C=C[C@H]3O)c2c1 | pIC50 | 5.05
O=C(O[C@@H]1C=CC(=O)[C@H]1O)c1c(O)ccc2ccccc12 | pIC50 | 5.07
COc1cc(C)c2ccc(O)c(C(=O)O[C@@H]3C=CC(=O)[C@H]3O)c2c1 | pIC50 | 5.40

Next molecule, please.
# query: pIC50 of entry O=C(O[C@@H]1C(=O)C(Br)=C[C@H]1O)c1c(O)ccc2ccccc12
4.89
